The reader will find reported MIC values listed item by item below.
test system: Cand. albicans ATCC 10231; test: Fungistatic effect, serial dilution test (microtitre system); assay type: cell-based; conditions: Candida albicans, ATCC10231, read-out: MHK
VALUE TYPE: MIC (µg/mL)

ENTRY SMILES	VALUE TYPE	QUANTITATIVE READOUT
CN(C)Cc1ccc(CC2CCN(C(=O)Oc3ccc(Cl)cc3)CC2)cc1	MIC	64
Cc1ccc(OC(=O)N2CCC(Cc3ccc(CN(C)C)cc3)CC2)cc1.Cl	MIC	64
CN(C)Cc1ccc(SC2CCN(C(=O)Oc3ccc(Cl)cc3)CC2)cc1	MIC	64
CN(C)Cc1ccc(CC2CCN(C(=O)Oc3ccc(F)cc3)CC2)cc1	MIC	128
